src = patent US8957000B2

Readings of pest or weed control at 5000 µg/mL for the listed compounds
System: Barnyard grass (Echinochloa crusgalli L.)
Assay: Herbicidal activity, foliar spraying (spectrum and SAR study)
Type: in vivo
Conditions: Echinochloa crus-galli, 72 h, read-out: Efficacy of phytotoxic activity; SAR study; one pot of barnyard grass; foliar spray 3 mL of 5 mg/mL; at least 3 days after spraying

Consider the reported pest or weed control at 5000 µg/mL for these compounds:
INSERT INTO measurements (compound, test_value) VALUES
  ('CCCCC/C=C\C=C\C(=O)OCC [No 3]', '< 20%'),
  ('CCCCCCCCCC(=O)N1CCCC1 [No 8, N-(Decanoyl)pyrrolidine]', '80 to 100%'),
  ('CCCCCCC/C=C/C(=O)N1CCCC1 [No 9, N-(Decenoyl)pyrrolidine]', '80 to 100%'),
  ('CCCCCCCCCC(=O)N1CCCCC1 [No 12, N-(Decanoyl)piperidine]', '80 to 100%'),
  ('O=C(O)/C=C/c1ccccc1 [No 20, trans-cinnamic acid, reference compound]', '60 to 80%'),
  ('O=C(/C=C/c1ccccc1)N1CCCC1 [No 11, N-(trans-Cinnamoyl)pyrrolidine]', '80 to 100%'),
  ('CCCCCCCCCC(=O)O [No 21, decanoic acid]', '80 to 100%'),
  ('CCCCCCCCCC(=O)N1CCCCCC1 [No 16, N-(Decanoyl)hexamethyleneimine]', '80 to 100%');

Consider the record given below.
Task item: Lab note: need pest or weed control at 5000 µg/mL for O=C(/C=C/c1ccccc1)N1CCCCCC1 [No 19, N-(trans-Cinnamoyl) hexamethleneimine] on Barnyard grass (Echinochloa crusgalli L.), anyone have it?
Reply: < 20%
